Recorded values, source PubChem BioAssay (NCI).

- Test system: SK-MEL-5 melanoma
- protocol description: NCI-60 one-dose screen, 48 h (100 = growth as untreated, 0 = no growth, -100 = all killed)
- condition details: 10 µM unless noted
Compounds without any hit were thinned out: in the full panel of roughly 83,000, 20% have a hit.
Recorded growth for the following compounds
Form entry: value (%) — number only.

| compound | assay system | unit descriptor | assay result |
| --- | --- | --- | --- |
| COc1ccc2c(c1)C(Br)=C(CCO)C2c1ccccc1 (stereo not given) | SK-MEL-5 melanoma | % | 96.5 |
| Cc1cc2nc3c4cc(Cl)ccc4n(CCN(C)C)c3nc2cc1C | SK-MEL-5 melanoma | % | 41 |
| Nc1ccccc1NC(=O)c1ccc(CN2CCC/C(=C\c3ccccn3)C2=O)cc1 | SK-MEL-5 melanoma | % | -15.6 |

Ask | Give growth (SK-MEL-5 melanoma) of the following compound: "CC1(C)C=CC[C@]2(C)[C@H]3CC[C@@H]4[C@H]5[C@H](C(=O)/C=C/c6cccnc6)CC[C@]5(CO)CC[C@@]4(C)[C@]3(C)CC[C@@H]12"
Reply | -99.3

Ask | Give growth (SK-MEL-5 melanoma) of the following compound: "COCCNC1=C(Cl)C(=O)c2ccccc2C1=O"
Reply | -6.75

----------
- System: OVCAR-8 ovarian
- protocol description: NCI-60 one-dose screen, 48 h (100 = growth as untreated, 0 = no growth, -100 = all killed)
- condition details: 10 µM unless noted
The panel holds about 83,000 compounds, 20% with a hit somewhere; the sample as a whole holds those more often. Active and inactive are the calls of the source. Rule for the calls: active = growth percent below 10; inactive = the rest.
Recorded growth for the following compounds

Sample answers from the record:
| compound | assay result |
| --- | --- |
| C=C(C)[C@@H]1CC[C@]2(C(=O)NNC(=O)c3cccnc3)CC[C@]3(C)[C@H](CC[C@@H]4[C@@]5(C)CCCNC(C)(C)[C@@H]5CC[C@]43C)[C@@H]12 | 76.7% (inactive) |
| CN(C)c1ccc(N=C2C=CC(=O)C=C2)cc1 | 81.7% (inactive) |
| CC(=O)Nc1cc(F)cc(C(F)(F)F)c1Cl | 105% (inactive) |

Ask | Which measured growth value corresponds to "N#Cc1c(-c2ccco2)nc2c(c(-c3ccccc3)nn2-c2ccccc2)c1-c1ccc(O)cc1" ?
Reply | 55.2% (inactive)

Ask | Which measured growth value corresponds to Nc1nc(Br)nc2c1ncn2C1CC(O)C(CO)O1 (stereo unspecified) ?
Reply | 35.9% (inactive)

Ask | Which measured growth value corresponds to "COC(=O)[C@]12CC[C@@H](C(/C=C/c3cccnc3)=N/O)[C@@H]1[C@H]1CC[C@@H]3[C@@]4(C)CC(=C/c5cccnc5)/C(=N/O)C(C)(C)[C@@H]4CC[C@@]3(C)[C@]1(C)CC2" ?
Reply | 39% (inactive)

Ask | Which measured growth value corresponds to "c1ccc(-c2nc(Nc3ccc(-c4nc5ccccc5[nH]4)cc3)nc(N3CCOCC3)n2)cc1" ?
Reply | -50.4% (active)

Ask | Which measured growth value corresponds to "Cc1ccc(-c2nn(Cc3cn(-c4cc(C)nc5ccccc45)nn3)c3ncnc(N)c23)cc1" ?
Reply | 62.5% (inactive)

----------
- System: NCI-H226 lung
- protocol description: NCI-60 one-dose screen, 48 h (100 = growth as untreated, 0 = no growth, -100 = all killed)
- condition details: 10 µM unless noted
The panel holds about 83,000 compounds, 20% with a hit somewhere; the sample as a whole holds those more often.
attribute measured: growth (%)
Form entry: value (%) — number only.

| molecule | growth / % |
| --- | --- |
| Cc1nn(-c2ccc(Br)cc2)c2nc3[nH]c(=O)[nH]c(=O)c3nc12 | 103 |
| Clc1ccc(Cn2cc(-c3nc4ccc(Br)nc4n3Cc3ccc(Cl)cc3)c3cccnc32)cc1 | 77.7 |
| COc1ccc(C2c3ccccc3NC(=O)N2C2CCN(C)CC2)c(OC)c1 (stereo not given) | 94.1 |
| CC(Cc1ccco1)C(=O)NC(N)=O (stereo not given) | 95.8 |

Shift focus to the following entry.
Ask | Which measured growth value corresponds to "COc1ccc(C(=O)c2cc(OC)c(OC)c(OC)c2)cc1/C=C/C(=O)c1cc(OC)c(OC)c(OC)c1" ?
Reply | 89.5

----------
- Tested on: U251 CNS
- protocol description: NCI-60 one-dose screen, 48 h (100 = growth as untreated, 0 = no growth, -100 = all killed)
- condition details: 10 µM unless noted
This is part of a sample that, as a whole, favours compounds with a hit. Of some 83,000 tested, about 20% had one in any assay.
Labelling: growth reported below 40% becomes Y; at or above becomes N.

Worked set:
| compound | label class |
| --- | --- |
| Cc1cc(Cl)nc(N(CCCNc2ccnc3cc(Cl)ccc23)Cc2ccco2)n1 | Y |
| CCN(CC)c1ccc(/C=C/c2cc(C)c3ccccc3n2)cc1 | N |
| C=C(C)[C@@H]1CC[C@]2(C(=O)O)CC[C@]3(C)[C@H](CC[C@@H]4[C@@]5(C)C/C(=C/c6ccc(OC)cc6)C(=O)C(C)(C)[C@@H]5CC[C@]43C)[C@@H]12 | Y |
| O=C(O)c1cccc2c1Cc1cc([N+](=O)[O-])ccc1-2 | N |
| NC(Cc1ccc(O)cc1)C(=O)N/N=C/c1ccccc1O (stereo not given) | N |

Ask | Criterion: growth strictly below 40%. Is it met by "CN(C)c1ccc(C(=O)c2ccc(N(C)C)c(N)c2)cc1N" ?
Reply | Y

Ask | Criterion: growth strictly below 40%. Is it met by "C/C(=N/NC(N)=S)C(=O)O" ?
Reply | N

Ask | Criterion: growth strictly below 40%. Is it met by OCC1OC(n2cnc3c(Cl)ncnc32)CC1O (stereo not given) ?
Reply | N

Ask | Criterion: growth strictly below 40%. Is it met by "O=C(NO)c1ccc(Cn2c(=O)n(-c3ccccc3)c(=O)c3ccccc32)cc1" ?
Reply | Y

Ask | Criterion: growth strictly below 40%. Is it met by "Cn1cc(-c2csc(-c3cn(CCN)c4ccc(Br)cc34)n2)c2cccnc21" ?
Reply | N

----------
- Test system: SK-MEL-28 melanoma
- protocol description: NCI-60 one-dose screen, 48 h
- condition details: 10 µM unless noted
Compounds without any hit were thinned out: in the full panel of roughly 83,000, 20% have a hit. Active and inactive are the calls of the source. The calls were made as follows: active = growth percent below 10; inactive = the rest.
Allowed answers: class 1 (active), class 0 (inactive)

| molecule | label class |
| --- | --- |
| COCCNC1=C(Cl)C(=O)c2ccccc2C1=O | class 0 |
| Cc1ccc(-c2nc3ccc(Cl)cc3c(=O)n2N2C(=O)CSC2c2ccccc2Cl)cc1 (centres undefined) | class 0 |
| COc1cc(-c2nc(-c3ccccc3)c(-c3ccccc3)[nH]2)cc(OC)c1O | class 1 |
| Cc1cc(N2CCOCC2)nc(N(CCCNc2ccnc3cc(Cl)ccc23)Cc2ccco2)n1 | class 0 |
| NC(=O)NCC1CCCCC1 | class 0 |
| N#C/C(=C\c1ccc(-c2ccc(Br)cc2)o1)c1nc(-c2cccs2)cs1 | class 0 |

Ask | For Cc1c(C)c2c(c(C)c1NC(=O)CCCCCCC(=O)O)CCC(C)(CCCC(C)CCCC(C)CCCC(C)C)O2 (centres undefined) , what call appears in the results of this test?
Reply | class 0

Ask | For "COc1ccc2c(c1)C/C(=C\c1cc(-c3ccc4c(c3)OCO4)n[nH]1)C2=O" , what call appears in the results of this test?
Reply | class 0

Ask | For "CC1(C)C(=O)/C(=C\c2ccco2)C[C@]2(C)[C@H]3CC[C@@H]4[C@@H](C(=O)/C=C/c5ccco5)CC[C@@]4(C)[C@]3(C)CC[C@@H]12" , what call appears in the results of this test?
Reply | class 0

----------
- Tested on: UO-31 renal
- protocol description: NCI-60 one-dose screen, 48 h (100 = growth as untreated, 0 = no growth, -100 = all killed)
- condition details: 10 µM unless noted
The panel holds about 83,000 compounds, 20% with a hit somewhere; the sample as a whole holds those more often.
attribute measured: growth (%)
Form entry: value (%) — number only.

Sample answers from the record:
| compound | unit descriptor | growth |
| --- | --- | --- |
| CSc1ccc(N(C)c2nc(C)nc3c2CCC3)cc1 | % | 29.3 |
| Cc1ccc(S(=O)(=O)Nc2ccc(-c3cc(-c4cccc(F)c4)c(C#N)c(=O)[nH]3)cc2)cc1 | % | 68.6 |
| COC1=C(Br)C(=O)C(OC)=C(Br)C1=O | % | 93.3 |
| c1cnc2[nH]cc(-c3csc(-c4cn(CCCN5CCCCC5)c5ccccc45)n3)c2c1 | % | 43.8 |
| CC(C)(C)c1ccc(OP(=S)(N/N=C/c2ccccc2O)Oc2ccc(C(C)(C)C)cc2)cc1 | % | 61 |

Ask | Which measured growth value corresponds to CCSc1ncnc2c1ncn2C1OC(CO)C(O)C1O (stereo unspecified) ?
Reply | 24.5

Ask | Which measured growth value corresponds to "C=C1C(=O)O[C@H]2[C@H]1CC/C(COC(=O)NCCc1c[nH]c3ccccc13)=C\CC[C@@]1(C)O[C@@H]21" ?
Reply | -100

Ask | Which measured growth value corresponds to "O=C(NC1=CC(=O)c2ccccc2C1=O)c1ccccc1" ?
Reply | -47.5

Ask | Which measured growth value corresponds to "CN1CCN(c2nc(-c3cccc4ccccc34)nc3sc4c(c23)CCCCCC4)CC1" ?
Reply | 46

Ask | Which measured growth value corresponds to "O=C1C(Cl)=C(Nc2ccc(S(=O)(=O)c3ccc(NC4=C(Cl)C(=O)c5ccccc5C4=O)cc3)cc2)C(=O)c2ccccc21" ?
Reply | -62.4

Ask | Which measured growth value corresponds to Nc1c2c(nc3ccc(Cl)cc13)CC(c1ccccc1)CC2=O (stereo unspecified) ?
Reply | 57.8
